Origin of values: ChEMBL document CHEMBL4390679

Assay protocol: Half life in Slc:ICR mouse plasma during slow phase at 100 ng/g, iv measured for 15 to 60 mins by LC-MS/MS analysis
Format: ADME, organism-based
Starred links: 1 amine or outer side, 2 acyl side, 3 side chain; linkers in the order of their positions; H or OH if unused. Positions of bridges follow the written chain, without caps; N, C: chain ends. Non-standard residues stand in square brackets, D forms with d. Residues, ends and D or L forms follow the SMILES beside them. N(4-F-Bzl)Gly = O=C(O)CNCc1ccc(F)cc1; X1 = O=C(CN(CCCO)[*:1])[*:2]
Parameter: half-life (min)

Compound	Reported result
CC[C@H](C)[C@@H]1NC(=O)[C@H](Cc2ccc(O)cc2)NC(=O)[C@@H](N)CSSC[C@@H](C(=O)N(CC(=O)N[C@@H](CC(C)C)C(=O)NCC(N)=O)Cc2ccc(F)cc2)NC(=O)[C@H](CC(N)=O)NC(=O)[C@H](CCC(N)=O)NC1=O (H-CYIQNC[N(4-F-Bzl)Gly]LG-NH2; disulfide 1-6)	2.86

(I) CC[C@H](C)[C@@H]1NC(=O)[C@H](Cc2ccc(O)cc2)NC(=O)[C@@H](N)CSSC[C@@H](C(=O)N2CCC[C@H]2C(=O)N[C@@H](CC(C)C)C(=O)NCC(N)=O)NC(=O)[C@H](CC(N)=O)NC(=O)[C@H](CCC(N)=O)NC1=O [OXYTOCIN]
(II) CC[C@H](C)[C@@H]1NC(=O)[C@H](Cc2ccc(O)cc2)NC(=O)[C@@H](N)CSSC[C@@H](C(=O)N(CCCO)CC(=O)N[C@@H](CC(C)C)C(=O)NCC(N)=O)NC(=O)[C@H](CC(N)=O)NC(=O)[C@H](CCC(N)=O)NC1=O (H-CYIQNC[X1]LG-NH2; disulfide 1-6)
Identify the entry with the smaller half-life: I or II . Refer to your chosen item by its label in the answer. II
